# test name: physchem
# condition label: LogPA (logP of the stated pure compound or, in a mixture, of the main isomer, 1-substituted 3-aryl-1H-pyrazole)
quantity measured: chromatographic logP
Answer using only a numeral; do not append any unit.

# annotated cases, reported chromatographic logP shown
compound | chromatographic logP
C=CCNc1nccc(-c2cnn(CC(C)C)c2-c2ccc(F)cc2)n1 [Compound 149] | 2.37
Cc1cc(-c2cn(C3CCCCO3)nc2-c2ccc(F)cc2)ccn1 (centres unmarked) [Compound 31] | 1.38
FC(F)(F)c1cccc(-c2nn(C3CCCCO3)cc2-c2ccnc3[nH]ccc23)c1 (centres unmarked) [Compound 50] | 2.93

Exercise: Looking for the measured chromatographic logP of COc1ccc(-c2c(-c3ccncc3)cnn2C2CCCCO2)c2ccccc12 (centres unmarked) [Compound 45] , can you help?
Solution: 1.69

Exercise: Now this one: NC(=O)c1cc(-c2cn(C3CCCCO3)nc2-c2ccc(F)cc2)ccn1 (centres unmarked) [Compound 93]
Solution: 2.46

Exercise: What about this compound? CC(C)(C)c1ccc(-c2c(-c3ccncc3)cnn2C2CCCCO2)cc1 (centres unmarked) [Compound 57]
Solution: 2.02

Exercise: One more compound: Nc1cc(-c2cn(C3CCCCO3)nc2-c2ccc(F)cc2)ccn1 (centres unmarked) [Compound 39]
Solution: 1.38

Exercise: Same question, CC(C)Cn1ncc(-c2ccncc2)c1-c1c(F)cccc1F [Compound 2] this time
Solution: 1.86

Exercise: Repeat for the following compound: COc1cc(F)ccc1-c1c(-c2ccncc2)cnn1C1CCCCO1 (centres unmarked) [Compound 64]
Solution: 1.26

Exercise: And then CCC(=O)Nc1cc(-c2cn(CCOC)nc2-c2ccc(F)cc2)ccn1 [Compound 153] , what is it?
Solution: 1.61

Exercise: Same question, C#CCn1ccc2c(-c3cn(C(C)C)nc3-c3ccc(F)cc3)ccnc21 [Compound 47] this time
Solution: 3.63

Exercise: Request: CCC(C)n1ncc(-c2ccncc2)c1-c1c(F)cccc1F (centres unmarked) [Compound 38]
Solution: 1.9

Exercise: What do you get for CNC(=O)c1cc(-c2cn(C(C)C)nc2-c2ccc(F)cc2)ccn1 [Compound 53] ?
Solution: 2.74

Exercise: Continue with CC(C)Cn1cc(-c2ccncc2)c(-c2c(F)cccc2F)n1 [Compound 13]
Solution: 1.62

Exercise: Same question, CC(C)Cn1cc(-c2ccncc2)c(-c2ccc(F)cc2)n1 [Compound 1] this time
Solution: 1.63

Exercise: // next record CC(C)=CCn1ncc(-c2ccncc2)c1-c1c(F)cccc1F [Compound 22]
Solution: 1.72

Exercise: Do the same for CC(C)=CCn1ncc(-c2ccncc2)c1-c1ccc(F)cc1 [Compound 25] please
Solution: 2.68

Exercise: Note, next up: Clc1cccc(-c2nn(C3CCCCO3)cc2-c2ccncc2)c1 (centres unmarked) [Compound 28]
Solution: 1.55

Exercise: Now try FC1(F)Oc2cccc(-c3c(-c4ccncc4)cnn3C3CCCCO3)c2O1 (centres unmarked) [Compound 33] .
Solution: 1.64

Exercise: Please answer likewise for CC(C)(C)C(=O)Nc1cc(-c2cn(C3CCCCO3)nc2-c2ccc(F)cc2)ccn1 (centres unmarked) [Compound 41]
Solution: 3.19

###

Recorded chromatographic logP for the following molecules
# test name: physchem
# condition label: LogPA
Lab note: record just the number, no unit beside it.

Exercise: Find the recorded chromatographic logP belonging to CCC(=O)Nc1cc(-c2cn(CC(F)F)nc2-c2ccc(F)cc2)ccn1 [Compound 215] and report it.
Solution: 1.99

Exercise: Another: CCC(=O)Nc1cc(-c2cn(CC(C)C)nc2-c2ccc(F)c(C#N)c2)ccn1 [Compound 230]
Solution: 2.67

Exercise: Repeat for the following molecule: CC(C)Cn1cc(-c2ccnc(NC3COC3)n2)c(-c2ccc(F)cc2)n1 [Compound 279]
Solution: 2.35

Exercise: Lookup CC(C)Cn1cc(-c2ccncc2-c2ccc(F)cc2)c(-c2ccc(F)cc2)n1 [Compound 228]
Solution: 2.96

Exercise: Would you kindly repeat that for CCNC(=O)Nc1cc(-c2cn(CC(F)F)nc2-c2ccc(F)cc2)ccn1 [Compound 231] ?
Solution: 1.91

###

# test name: physchem
# condition label: pH 2.7, logP (pH 2.7)
quantity measured: chromatographic logP
Lab note: record just the number, no unit beside it.

Examples from the recorded data:
compound | measured number
COCCn1ncc(Br)c1-c1ccc(F)cc1 [[VI-7]] | 2.9
Fc1ccc(-c2nn(Cc3ccccc3F)cc2Br)cc1 [[VI-13]] | 4.39

Next:
Exercise: Which chromatographic logP reading was recorded for the compound COCCn1cc(Br)c(-c2ccc(F)cc2)n1 [[VI-6]] ?
Solution: 3.08

###

# test name: physchem
# condition label: pH 2.3, LogP (pH 2.3)
Parameter: chromatographic logP. Scope: all listed entries.
Respond numerically, and do not add a unit to the figure.

Please review the entries below; each comes with its answer.
compound | chromatographic logP
Nc1cc(-c2cn(CC(F)F)nc2-c2ccc(F)cc2)ccn1 [[III-4]] | 1.03
N#Cc1cccc(-c2c(-c3ccncc3)cnn2C2CCCCO2)c1 (stereo not drawn) [[X-11]] | 1.23
FC(F)(F)Oc1ccc(-c2c(-c3ccncc3)cnn2C2CCCCO2)cc1 (stereo not drawn) [[X-19]] | 1.78

Exercise: GET /values?readout=chromatographic logP&item= CC(C)n1cc(B2OC(C)(C)C(C)(C)O2)c(-c2ccc(F)cc2)n1 [[V-1]]
Solution: 4.46

Exercise: Try this compound next: CC(C)Cn1cc(B2OC(C)(C)C(C)(C)O2)c(-c2ccc(F)cc2)n1 [[V-3]]
Solution: 4.89

Exercise: Same read-out for Fc1ccc(-c2c(-c3ccncc3)cnn2C2CCCCO2)cc1Cl (stereo not drawn) [[X-6]] ?
Solution: 1.57

###

Catalogue of pest or weed control at 500 ppm readings, one per entry.
# System: Alternaria solani
# test name: Example M: in vivo test on Alternaria solani (leaf blotch disease/tomato/protective)
# condition label: 168 h, tomato, protective, 500 ppm active substance, assessed 7 days after inoculation, read-out: % Wirkungsgrad (activity level)
Record the value in %, omitting the unit from your answer.

Exercise: Lab note: need pest or weed control at 500 ppm with Alternaria solani for entry CCC(=O)Nc1cc(-c2cn(Cc3ccccc3F)nc2-c2ccc(F)cc2)ccn1 , please look it up.
Solution: 90

###

# test name: physchem
# condition label: LogPA
Hi! Just check whether chromatographic logP is below 2. Below gives TRUE, equal or above gives FALSE.

compound | class name
CCOC(=O)CC(CC)CC(=O)Nc1cc(-c2cn(CC)nc2-c2ccc(F)cc2)ccn1 (stereo not drawn) [Compound 332] | FALSE
COC(=O)C(C(C)C)n1cc(-c2ccnc(NC(=O)C(C)C)c2)c(-c2ccc(F)cc2)n1 (stereo not drawn) [Compound 277] | FALSE
CC(C)n1cc(-c2ccnc(NC(c3ccccc3)C(F)(F)F)c2)c(-c2ccc(F)cc2)n1 (stereo not drawn) [Compound 325] | FALSE
O=C(Nc1cc(-c2cn(OC3CCCC3)nc2-c2ccc(F)cc2)ccn1)C1CC1 [Compound 269] | FALSE
COCC(=O)Nc1cc(-c2cn(C)nc2-c2ccc(F)cc2)ccn1 [Compound 297] | TRUE
O=C(Nc1cc(-c2cn(Cc3ccccc3F)nc2-c2ccc(F)cc2)ccn1)C1CC1 [Compound 262] | FALSE
COCCn1cc(-c2ccnc(NC(C)C)n2)c(-c2ccc(F)cc2)n1 [Compound 358] | TRUE
CC(C)n1cc(-c2ccnc(NC(=O)C(O)CO)c2)c(-c2ccc(F)cc2)n1 (stereo not drawn) [Compound 210] | TRUE
O=C(CC1CC1)Nc1cc(-c2cn(Cc3ccccc3F)nc2-c2ccc(F)cc2)ccn1 [Compound 253] | FALSE
COCC(=O)Nc1cc(-c2c(-c3cc(F)c(C#N)cc3F)nn(C)c2OC(F)F)ccn1 [Compound 199] | FALSE

Exercise: Threshold test, chromatographic logP < 2: CC(C)Cn1cc(-c2ccnc(N3CCCC3=O)c2)c(-c2ccc(F)cc2)n1 [Compound 187]
Solution: FALSE

Exercise: Now consider CC(C)OC(=O)Nc1cc(-c2cn(C(C)C)nc2-c2ccc(F)cc2)ccn1 [Compound 181] and answer again.
Solution: FALSE

Exercise: // same read-out, input: CC(C)C(=O)Nc1cc(-c2cn(C)nc2-c2ccc(F)cc2)ccn1 [Compound 298]
Solution: TRUE

Exercise: Try this compound too: CCOCCn1cc(-c2ccncc2)c(-c2ccc(F)cc2)n1 [Compound 179]
Solution: TRUE

Exercise: Another compound to check: CCC(=O)Nc1cc(-c2cn(CCC#N)nc2-c2ccc(F)cc2)ccn1 [Compound 303]
Solution: TRUE

###

Catalogue of compounds with associated pest or weed control at 500 ppm
# Tested on: Alternaria solani
# test name: Example M: in vivo test on Alternaria solani (leaf blotch disease/tomato/protective)
# condition label: 168 h, tomato, protective, 500 ppm active substance, assessed 7 days after inoculation, read-out: % Wirkungsgrad (activity level)
# Experimental: Solvent: 49 parts by weight N,N-dimethylformamide Emulsifier: 1 part by weight alkylaryl polyglycol ethers For the preparation of a suitable active substance preparation, 1 part by weight of active substance is mixed with the stated quantities of solvent and emulsifier and the concentrate is diluted to the desired concentration with water. For the testing for protective activity, young tomato plants are sprayed with the active substance preparation at the stated application dosage. […]
Give the number; % is assumed, so skip it.

A selection of reference data follows.
compound | study system | reading unit | pest or weed control at 500 ppm
CCn1cc(-c2ccnc(NC(=O)C(C)C)c2)c(-c2ccc(F)cc2)n1 [Compound 290] | Alternaria solani | % | 100
CCNC(=O)Nc1cc(-c2cn(C(C)C)nc2-c2ccc(F)cc2)ccn1 [Compound 211] | Alternaria solani | % | 70
O=C(CC1CC1)Nc1cc(-c2cn(Cc3ccccc3F)nc2-c2ccc(F)cc2)ccn1 [Compound 253] | Alternaria solani | % | 94
CC(C)C(=O)Nc1cc(-c2cn(Cc3ccccc3F)nc2-c2ccc(F)cc2)ccn1 [Compound 256] | Alternaria solani | % | 94

Exercise: // map CCOCCn1cc(-c2ccnc(NC(=O)CC3CC3)c2)c(-c2ccc(F)cc2)n1 [Compound 329] to recorded pest or weed control at 500 ppm (system: Alternaria solani)
Solution: 95

Exercise: Moving on to CCC(=O)Nc1cc(-c2cn(OC(C)C)nc2-c2ccc(F)cc2)ccn1 [Compound 226]
Solution: 95

Exercise: Same thing, different compound: CCC(=O)Nc1cc(-c2cn(C(C(=O)OC)C(C)C)nc2-c2ccc(F)cc2)ccn1 (centres unmarked) [Compound 274]
Solution: 95

Exercise: What do you have for CC(C)Cn1cc(-c2ccnc(NC(C)C)n2)c(-c2ccc(F)cc2)n1 [Compound 174] ?
Solution: 100

Exercise: Same read-out for C#CCn1cc(-c2ccnc(NC(C)C)n2)c(-c2ccc(F)cc2)n1 [Compound 363] ?
Solution: 90

Exercise: Try the compound COCC(=O)Nc1cc(-c2cn(C(C)c3ccccc3F)nc2-c2ccc(F)cc2)ccn1 (centres unmarked) [Compound 244]
Solution: 94

Exercise: Same lookup for O=C(Nc1cc(-c2cn(CC3CC3)nc2-c2ccc(F)cc2)ccn1)C1CC1 [Compound 224] , please.
Solution: 70
